System: Staphylococcus epidermidis
ASSAY_DETAILS: Antibacterial activity against Staphylococcus epidermidis after 24 hrs micro dilution assay
Format: functional
CONDITIONS: Staphylococcus epidermidis, 24 h; read-out: MIC
READOUT: MIC (µg/mL)

{"COMPOUND": "Cl.Clc1ccc(CN[C@H]2CCCC[C@@H]2NCc2ccc(Cl)cc2)cc1", "STUDY_SYSTEM": "Staphylococcus epidermidis", "READOUT": "MIC", "DATA_VALUE": 0.032}

P = Cl.Fc1cccc(CNC2CCCCC2NCc2cccc(F)c2)c1 (stereo not drawn)
Q = Brc1ccc(CN[C@H]2CCCC[C@@H]2NCc2ccc(Br)cc2)cc1.Cl
Param metric = MIC; output whichever of P , Q has the minimum value. In your reply, give the label of the chosen option. Q
(Q: 0.016 µg/mL, P: 0.25 µg/mL)
